Parameter Bliss excess: see the listing below.
Test system: K-562 (Chronic Myelogenous Leukemia);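 further: after 72 h of two-drug dosing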
PROCEDURE_SUMMARY: Bliss excess, mean over the matrix (fraction); higher = more synergy
Keep the answer to the number alone.

C[C@@H](Oc1cc(-c2cnn(C3CCNCC3)c2)cnc1N)c1c(Cl)ccc(F)c1Cl [Crizotinib] + CC1=C(C(=CC=C1)Cl)NC(=O)C2=CN=C(S2)NC3=CC(=NC(=N3)C)N4CCN(CC4)CCO [Dasatinib] (first compound max 10 µM, 7x7, partner max 2 µM)	0.0162

Please look at CN(CCO)CC[C@H](CSc1ccccc1)Nc1ccc(S(=O)(=O)NC(=O)c2ccc(N3CCC([C@@H](O)c4ccccc4-c4ccc(Cl)cc4)CC3)cc2)cc1S(=O)(=O)C(F)(F)F [AZD4320] + CS(=O)(=O)CCNCc1ccc(-c2ccc3ncnc(Nc4ccc(OCc5cccc(F)c5)c(Cl)c4)c3c2)o1 [Lapatinib] (first compound max 1 µM, 7x7, partner max 10 µM) and tell me its recorded Bliss excess on K-562 (Chronic Myelogenous Leukemia). -0.03

Please look at CN(CCO)CC[C@H](CSc1ccccc1)Nc1ccc(S(=O)(=O)NC(=O)c2ccc(N3CCC([C@@H](O)c4ccccc4-c4ccc(Cl)cc4)CC3)cc2)cc1S(=O)(=O)C(F)(F)F [AZD4320] + Cc1cc2ncnn2cc1Nc1ncc2c(n1)n(C1CCOCC1)c(=O)n2C [AZD7648] (first compound max 1 µM, 7x7, partner max 10 µM) and tell me its recorded Bliss excess on K-562 (Chronic Myelogenous Leukemia). -0.0332
